Values compiled from patent US20250179187A1.

Target Desc: T1, recombinant human PD-L2 (human PD-L2 antigen) (human, UniProt Q9BQ51 20-219, limits assumed)
T1 construct: The Biacore analyte and the ELISA antigen are only called human PD-L2 antigen / recombinant hPD-L2; Whole entry named; also called hPD-L2; recombinant hPD-L2
T1 sequence (looked up): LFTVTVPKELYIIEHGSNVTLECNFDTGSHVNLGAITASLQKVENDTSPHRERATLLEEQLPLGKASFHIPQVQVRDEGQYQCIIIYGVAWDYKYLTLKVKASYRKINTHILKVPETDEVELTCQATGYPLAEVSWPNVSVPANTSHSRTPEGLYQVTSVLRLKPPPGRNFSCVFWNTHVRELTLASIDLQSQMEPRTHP
Assay Notes: SPR (Biacore 8K), single cycle kinetics, antibody in culture supernatant, human PD-L2 antigen
Entries and their koff
Supply the numeric figure in s⁻¹, leaving out any unit text.

Answered examples (4):
- Binder: "VH4/VK1 (antibody, V domains shown, hIgG1 backbone, CHO expressed) VH: QVQLVQSGAEVKKPGSSVKVSCKASGYAFSNYFIEWVKQPPGKGLEWIGLNIPGSGGSNYAEKFKGRVTITADKSTSTAYMELSSLRSEDTAVYYCARRRLPPDWYFDVWGQGTTVTVSS VL: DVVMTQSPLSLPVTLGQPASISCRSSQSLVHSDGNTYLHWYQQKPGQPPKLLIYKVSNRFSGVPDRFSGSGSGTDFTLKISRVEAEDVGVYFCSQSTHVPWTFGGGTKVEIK"
  Value Type: "koff"
  Endpoint Value: 0.000125
- Binder: "VH1/VK1 (antibody, V domains shown, hIgG1 backbone, CHO expressed) VH: QVQLVQSGAELKKPGSSVKVSCKASGYAFSNYFIEWVKQPPGKGLEWIGLNIPGSGGSNYAEKFKGRATITADKSTSTAYMELSSLTSEDSAVYFCARRRLPPDWYFDVWGQGTTVTVSS VL: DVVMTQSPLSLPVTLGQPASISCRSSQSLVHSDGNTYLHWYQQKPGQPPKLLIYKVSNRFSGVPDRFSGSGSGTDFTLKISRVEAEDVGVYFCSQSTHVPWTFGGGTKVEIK"
  Value Type: "koff"
  Endpoint Value: 0.00011
- Binder: "VH4/VK2 (antibody, V domains shown, hIgG1 backbone, CHO expressed) VH: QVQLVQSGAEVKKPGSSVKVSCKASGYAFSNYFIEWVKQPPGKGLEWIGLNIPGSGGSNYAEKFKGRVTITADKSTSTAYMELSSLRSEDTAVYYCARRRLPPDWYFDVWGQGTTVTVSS VL: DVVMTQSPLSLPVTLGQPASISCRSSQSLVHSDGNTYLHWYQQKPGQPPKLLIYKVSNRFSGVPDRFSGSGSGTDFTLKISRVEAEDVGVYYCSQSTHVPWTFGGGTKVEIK"
  Value Type: "koff"
  Endpoint Value: 0.000129
- Binder: "VH8/VK1 (antibody, V domains shown, hIgG1 backbone, CHO expressed) VH: QVQLVQSGAEVKKPGSSVKVSCKASGYAFSNYFIEWVKQPPGKGLEWIGLNIPGSGGSNYAEKFKGRATITADKSTSTAYMELSSLRSEDTAVYYCARRRLPPDWYFDVWGQGTTVTVSS VL: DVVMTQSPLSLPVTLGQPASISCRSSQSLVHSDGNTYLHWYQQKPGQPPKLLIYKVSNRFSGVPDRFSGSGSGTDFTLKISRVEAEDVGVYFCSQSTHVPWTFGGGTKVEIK"
  Value Type: "koff"
  Endpoint Value: 0.00012

Now consider a different binder.
Form field: reported koff of VH0/VK0 chimeric antibody (hIgG1 backbone) (antibody, V domains shown, Mouse variable regions on human IgG1 backbone, expressed in CHO cells; also called chimeric anti-PDL2 lead mAb VH0/VK0) VH: QVQLQQSGAELVRPGTSVKVSCKASGYAFSNYFIEWVKQRPGQGLEWIGLNIPGSGGSNYAEKFKGKATLTADKSSSTAYMQLSSLTSEDSAVYFCARRRLPPDWYFDVWGTGTTVTVSS VL: DVVMTQTPLSLPVSLGDQASISCRSSQSLVHSDGNTYLHWYLQKPGQSPKLLIYKVSNRFSGVPDRFSGSGSGTDFTLKISRVEAEDLGVYFCSQSTHVPWTFGGGTKLEIK 9.72e-05
